Cited source for all entries: PubChem BioAssay (NCI)

Tested on: A498 renal
Assay: NCI-60 one-dose screen, 48 h (100 = growth as untreated, 0 = no growth, -100 = all killed)
Conditions: 10 µM
Procedure: Growth inhibition of the A498 human tumor cell line is measured as a screen for anti-cancer activity. Cells are grown in 96 well plates and exposed to the test compound for 48 hours. Compounds are tested at a single concentration, which is 10^-5 M for most compounds. The reported endpoint is percent growth (GI% or GIPRCNT), where numbers from 0 - 100% represent growth inhibition, and numbers from -100% - 0 represent cell death. For example, a value of 40 represents 60% growth inhibition. […]
About 83,000 compounds went through this panel and 20% of them were active in at least one assay; those are over-represented in the sample as a whole.
assay_metric: growth (%)

{"columns": ["molecule", "assay_metric", "val"],
 "data": [
  ["CCc1ccccc1-n1c(N)c(C#N)c(-c2ccc(OC)c(OC)c2)c(C#N)c1=O", "growth", 120],
  ["CC(C)(C)c1cc(NC(=O)Cc2ccc(-c3cnc4cc(-c5cnn(CCN6CCOCC6)c5)ccc4n3)cc2)no1", "growth", -26.9],
  ["CCCCCCCCCCCCCCCc1ccc(Cl)c(O)c1Cl (tested in a mixture with another compound)", "growth", 125],
  ["CNC(=O)c1cc(Oc2ccc(CC(=O)Nc3cc(C(C)(C)C)nn3C)cc2)ccn1", "growth", 31.2],
  ["CC#C[C@]1(O)CC[C@H]2[C@@H]3CCC4=CC(=O)CCC4=C3[C@@H](c3ccc4c(c3)OCO4)C[C@@]21C", "growth", 63]
]}

---

Test system: RXF 393 renal
Assay: NCI-60 one-dose screen, 48 h
Details: 10 µM unless noted
About 83,000 compounds went through this panel and 20% of them were active in at least one assay; those are over-represented in the sample as a whole. Activity calls are given as the source filed them. The calls were made as follows: active = growth percent below 10; inactive = the rest.
Possible outcomes: active, inactive

{"columns": ["molecule", "qualitative_label"],
 "data": [
  ["Clc1nc(Oc2ccccc2)nc(-c2cn(-c3ccccc3)c3ccccc23)n1", "inactive"],
  ["N#C/C(=C/c1c(O)ccc2ccccc12)C(N)=O", "inactive"],
  ["Cc1c(Cl)cccc1NCN1C(=O)c2ccccc2C1=O", "inactive"],
  ["CC1=C(/C=C/C(C)=C/C=C/C(C)=C/C=N/NC(=S)NC(=S)N/N=C/C=C(C)/C=C/C=C(C)/C=C/C2=C(C)CCCC2(C)C)C(C)(C)CCC1", "active"],
  ["Cc1n[nH]c(=O)n(/N=C\\c2c[nH]c3ccccc23)c1=O", "inactive"],
  ["OCc1ccccn1", "inactive"],
  ["Fc1ccccc1Nc1n[nH]c(=S)s1", "inactive"],
  ["CC(/C=N/N1C(=O)c2ccccc2C1=O)c1ccccc1 (centres undefined)", "inactive"],
  ["CCC(=O)C(CC)c1cccc(OC)c1 (centres undefined)", "inactive"],
  ["O=C1NC(=O)C2(CCc3ccccc32)N1 (centres undefined)", "inactive"],
  ["O=C(Cc1cccc2ccccc12)N/N=C/c1ccc2c(c1)CCC2", "inactive"],
  ["CCCCCn1sc(=O)n(Cc2ccc(CNC(=O)C(C)c3ccc(CC(C)C)cc3)cc2)c1=O (centres undefined)", "active"],
  ["CCCCCCCCCCCCOc1ccccc1C=O", "inactive"],
  ["Cc1nnc(NC/C=C/c2ccccc2)s1", "inactive"],
  ["N=C1N=C(N)CS1", "inactive"],
  ["COc1ccc2ccccc2c1/C=N/N1CCCCC1", "inactive"],
  ["O=C1c2ccccc2C(=O)N1/N=C/c1ccc2c(c1)OCO2", "inactive"],
  ["Cc1ccc2nc3c(nc2c1)-c1cccc2cccc-3c12", "inactive"],
  ["CCOC(=O)C(CNc1ccccc1)C(=O)OCC", "inactive"],
  ["CC(C)Cc1ccc(C(C)C(=O)NCc2ccc(Cn3c(=O)sn(CCCCl)c3=O)cc2)cc1 (centres undefined)", "active"],
  ["O=C=NC(c1ccccc1)(c1ccccc1)c1ccccc1", "inactive"],
  ["N#CCCOc1ccccc1", "inactive"],
  ["CC1=C[C@H]2c3c(c(O)c(O)c4oc5cc(O)cc(O)c5c(=O)c34)[C@H](c3cc(O)c(O)c4oc5cc(O)cc(O)c5c(=O)c34)[C@H]2C(C)(C)C1", "active"],
  ["CNC(=O)c1ccc(C)c(-n2c(C)cc(OCc3ccc(F)cc3F)c(Br)c2=O)c1", "inactive"]
]}

---

As shown below, each of these compounds has a reported growth value.
Tested on: K-562 leukemia
Experiment: NCI-60 one-dose screen, 48 h (100 = growth as untreated, 0 = no growth, -100 = all killed)
Settings: 10 µM unless noted
This is part of a sample that, as a whole, favours compounds with a hit. Of some 83,000 tested, about 20% had one in any assay.

{"columns": ["compound", "unit_string", "growth"],
 "data": [
  ["O=[N+]([O-])c1ccc2nc3c4ccccc4c4ccccc4c3nc2c1", "%", 67.4],
  ["N/C(=N\\N=C\\c1ccc2c(c1)OCO2)N/N=C\\c1ccc2c(c1)OCO2", "%", 90.1],
  ["N#C/C(=C1C=C/C(=N/O)C(Br)=C/1)c1ccccc1", "%", 9.55],
  ["Oc1ccccc1C=NCC1CCC(CN=Cc2ccccc2O)CC1 (stereo not drawn)", "%", 99.4],
  ["NC(=S)NS(=O)(=O)c1ccc(N)cc1", "%", 103],
  ["CCOC(=O)c1sc(N)nc1-c1ccccc1", "%", 96],
  ["CC(C(=O)O)n1cc(C#N)c(=O)[nH]c1=O (stereo not drawn)", "%", 104],
  ["O=C1CCN(Cc2ccccc2)C(=S)N1", "%", 87]
]}

---

Tested on: A549/ATCC NSCLC
Assay: NCI-60 one-dose screen, 48 h (100 = growth as untreated, 0 = no growth, -100 = all killed)
Settings: 10 µM unless noted
About 83,000 compounds went through this panel and 20% of them were active in at least one assay; those are over-represented in the sample as a whole.
As shown below, each of these compounds has a reported growth value.

{"columns": ["compound", "target_of_assay", "growth / %"],
 "data": [
  ["Oc1ccccc1C=NCC1CCC(CN=Cc2ccccc2O)CC1 (configuration not stated)", "A549/ATCC NSCLC", 92.2],
  ["O=C(Nc1cccc(-n2ccc3c(NC(=O)c4ccccc4)nccc32)c1)c1ccc(Cl)c(C(F)(F)F)c1", "A549/ATCC NSCLC", 36.8],
  ["CC(=O)c1ccc2c(c1)N(CCCN1CCN(CCO)CC1)c1ccccc1S2", "A549/ATCC NSCLC", 45.5],
  ["Cc1nnc(NC/C=C/c2ccccc2)s1", "A549/ATCC NSCLC", 101],
  ["CCCCCCCCCCCCCCCCOc1ccc(C)cc1", "A549/ATCC NSCLC", 102],
  ["NCCSC(C[N+](=O)[O-])c1ccccc1Cl (configuration not stated)", "A549/ATCC NSCLC", -26.9],
  ["Oc1ccccc1/C=N\\NC(=S)N/N=C/c1ccccc1O", "A549/ATCC NSCLC", 32.4],
  ["N#CCCOc1ccccc1", "A549/ATCC NSCLC", 96.7],
  ["COc1cc(C(=O)N/N=C/c2ccc(N(C)C)cc2)cc(OC)c1OC", "A549/ATCC NSCLC", 18.4],
  ["Nc1n[nH]c(=S)n1-c1ccc(Cl)cc1", "A549/ATCC NSCLC", 100],
  ["Nc1ccc2[nH]c(-c3ccccc3)cc(=O)c2c1", "A549/ATCC NSCLC", 102],
  ["COc1ccc2ccccc2c1/C=N/N1CCCCC1", "A549/ATCC NSCLC", 95.7]
]}

---

System: BT-549 breast
Assay: NCI-60 one-dose screen, 48 h (100 = growth as untreated, 0 = no growth, -100 = all killed)
Settings: 10 µM unless noted
About 83,000 compounds went through this panel and 20% of them were active in at least one assay; those are over-represented in the sample as a whole. Active and inactive are the calls of the source. How the source made its calls: active means growth percent below 10; inactive means the rest.

{"columns": ["molecule", "growth"],
 "data": [
  ["CNC(=O)c1cccnc1", "101% (inactive)"],
  ["CC(C(=O)O)n1cc(C#N)c(=O)[nH]c1=O (stereo not drawn)", "99.4% (inactive)"],
  ["CCC(C)C1(C2CCCC2)NC(=O)NC1=O (stereo not drawn)", "107% (inactive)"],
  ["O=C(O)CSCc1nc2ccccc2[nH]1", "108% (inactive)"],
  ["CN(Cc1ccccc1)Cc1ccccc1", "106% (inactive)"],
  ["Clc1nc(Oc2ccccc2)nc(-c2cn(-c3ccccc3)c3ccccc23)n1", "96.9% (inactive)"],
  ["CC(=O)C(/C=N/C(N)=O)=C(/C)O", "101% (inactive)"],
  ["CC(O)Cn1cnc2c1c(=O)n(C)c(=O)n2C (stereo not drawn)", "83.5% (inactive)"],
  ["OCc1ccccn1", "103% (inactive)"],
  ["Cc1ccc(-c2noc(CC(=O)c3ccc([N+](=O)[O-])cc3)n2)cc1", "103% (inactive)"],
  ["O=C(Nc1ccc(Cl)cc1)c1cc2ccccc2cc1O", "23.3% (inactive)"],
  ["N=C1N=C(N)CS1", "120% (inactive)"],
  ["O=[N+]([O-])c1ccccc1N(S(=O)(=O)c1ccccc1)S(=O)(=O)c1ccccc1", "106% (inactive)"]
]}
